assay: in vivo; settings: ICR, mouse, plasma, po, 10 mg/kg
assay-readout: concentration at 4 h (ng/mL)
Return type: number; implicit unit ng/mL.

Query: Please look up its concentration at 4 h: "Cn1c(=O)n(CCCO)c(=O)c2c1nc(Oc1cccc(Cl)c1)n2Cc1ccc(Cl)cc1"
Reply: 398

---

test: in vitro; settings: human, liver microsomes
// half-life at 1 h, 1 µM lookup, one value per entry
Write the answer as a number in min, unit excluded.

Solved entries (count: 2):
molecule | measured
Cn1c(=O)n(CCCO)c(=O)c2c1nc(Oc1cccc(Cl)c1)n2Cc1ccc(Cl)cc1 | 117
Cn1c(=O)n(CCCO)c(=O)c2c1cc(/C=C/c1ccc(Cl)cc1)n2Cc1ccc(Cl)cc1 | 141

Consider the record given below.
Query: May I ask what half-life at 1 h, 1 µM has been recorded for Cn1c(=O)n(CCCO)c(=O)c2c1cc(C1CC1C1CCCC1)n2Cc1ccc(Cl)cc1 (stereo not drawn) ?
Reply: 12

---

The entries below are paired with their reported half-life at 1 h, 1 µM.
assay: in vitro; details: rat, liver microsomes
Answer format: numeric, min implied, no suffix.

compound | endpoint-unit | half-life at 1 h, 1 µM
Cn1c(=O)n(CCCO)c(=O)c2c1nc(Oc1cccc(Cl)c1)n2Cc1ccc(Cl)cc1 | min | 4
Cn1c(=O)n(CCCO)c(=O)c2c1cc(C1CC1C1CCCC1)n2Cc1ccc(Cl)cc1 (stereo not drawn) | min | 1

Query: For the compound shown here, "Cn1c(=O)n(CCCO)c(=O)c2c1cc(/C=C/c1ccc(Cl)cc1)n2Cc1ccc(Cl)cc1" , give the reported half-life at 1 h, 1 µM.
Reply: 40

---

test: in vivo; conditions: ICR, mouse, plasma, po, 10 mg/kg
assay-readout: concentration at 1 h (ng/mL)
// return numeric value only (unit: ng/mL, not printed)

Query: Quick one: concentration at 1 h of "Cn1c(=O)n(CCCO)c(=O)c2c1nc(Oc1cccc(Cl)c1)n2Cc1ccc(Cl)cc1" ?
Reply: 802
